Attribution: ChEMBL document CHEMBL5316319

Target: Death-associated protein kinase 2 (Homo sapiens, UniProt Q9UIK4)
pKd: −log10 of the molar value.
measuredProperty: pKd

# compound, experimentalTarget, quantitativeReadout
data = [
    ("CC(Sc1nc2c(cnn2-c2cccc(Cl)c2)c(=O)[nH]1)C(N)=O (stereo unspecified)", "Death-associated protein kinase 2 (Homo sapiens, UniProt Q9UIK4)", 7.10),
]

* * *

Record set of Ki for target or system Serine/threonine-protein kinase pim-3 (Homo sapiens).
measuredProperty: Ki (nM)

# molecule, relationalOperator, quantitativeReadout
rows = [
    ("N#CCSc1nc2c(cnn2-c2cccc(Cl)c2)c(=O)[nH]1", "=", 72),
    ("CC(Sc1nc2c(cnn2-c2cccc(Cl)c2)c(=O)[nH]1)C(N)=O (configuration not stated)", ">", 100000),
]

* * *

Target: Death-associated protein kinase 1 (Homo sapiens)
Experiment: Inhibition of DAPK1 (1 to 285 residues) (unknown origin) expressed in Escherichia coli using KKLNRTLSFAEPG as substrate in presence of ATP by fluoro-spark kinase assay

# structureSmilesString, IC50, µM
records = [
    ("O=C1c2ccccc2C(=O)c2c(O)c(O)cc(O)c21", 0.89),
    ("Nc1c(O)c(S(=O)(=O)O)c(O)c2c1C(=O)c1ccccc1C2=O", 9.6),
    ("O=C1c2ccccc2C(=O)c2c1ccc(O)c2O", 3.6),
]

* * *

Biological target: Serine/threonine-protein kinase 17B (Homo sapiens, UniProt O94768)
Experiment: Inhibition of DRAK2 (unknown origin)

# structureSmilesString, IC50
records = [
    ("COc1cnc(Nc2ccc(CS(C)(=O)=O)cc2)nc1Nc1cc(C2CC2)[nH]n1", "10 nM"),
]

* * *

Each entry below carries its recorded pKi.
Biological target: Death-associated protein kinase 3 (Homo sapiens, UniProt O43293)
Test: Inhibition of human recombinant GST-fused DAPK3 (1 to 320 residues) expressed in Escherichia coli BL21 (DE3) assessed as inhibition constant using MYPT1 as peptide substrate incubated for 10 mins in presence of [gamma-32P]ATP by radiometric scintillation assay
pKi: −log10 of the molar value.

# compound, pKi
data = [
    ("N#CCSc1nc2c(cnn2-c2cccc(Cl)c2)c(=O)[nH]1", 6.50),
    ("CCC(Sc1nc2c(cnn2-c2cccc(F)c2)c(=O)[nH]1)C(N)=O (centres undefined)", 6.92),
    ("CC(C)(Sc1nc2c(cnn2-c2ccccc2)c(=O)[nH]1)C(N)=O", 6.90),
    ("CC(Sc1nc2c(cnn2-c2cccc(Cl)c2)c(=O)[nH]1)C(N)=O (centres undefined)", 6.59),
]

* * *

Molecular target: UniProt O43293
pIC50: −log10 of the molar value.
measuredProperty: pIC50

# structureSmilesString, measuredProperty, quantitativeReadout
records = [
    ("COc1cnc(Nc2ccc(CS(C)(=O)=O)cc2)nc1Nc1cc(C2CC2)[nH]n1", "pIC50", 6.51),
]

* * *

Biological target: Death-associated protein kinase 3 (Homo sapiens, UniProt O43293)
Assay: Binding affinity to DAPK3 (unknown origin) assessed as dissociation constant

# compound, experimentalTarget, Kd (µM)
data = [
    ("CC(Sc1nc2c(cnn2-c2cccc(Cl)c2)c(=O)[nH]1)C(N)=O (stereo unspecified)", "Death-associated protein kinase 3 (Homo sapiens, UniProt O43293)", 0.28),
]

* * *

Target: Death-associated protein kinase 1 (Homo sapiens, UniProt P53355)
Assay: Inhibition of DAPK1 (unknown origin) in presence of 33P-ATP radiolabeled kinase assay
pIC50: −log10 of the molar value.
Each entry below carries its recorded pIC50.

# structureSmilesString, experimentalTarget, pIC50
measured = [
    ("Cc1nc2c(OCc3ccccc3)ncnc2n1C(C)C", "Death-associated protein kinase 1 (Homo sapiens, UniProt P53355)", 4.64),
    ("CC(C)(C)n1c(-c2ccccc2)nc2c(OCc3ccccc3)ncnc21", "Death-associated protein kinase 1 (Homo sapiens, UniProt P53355)", 5.60),
    ("c1ccc(COc2ncnc3c2ncn3Cc2ccccc2)cc1", "Death-associated protein kinase 1 (Homo sapiens, UniProt P53355)", 5.23),
]

* * *

Each entry below carries its recorded pIC50.
Biological target: UniProt P53355
Test: Inhibition of DAPK1 (unknown origin)
pIC50: −log10 of the molar value.

# structureSmilesString, pIC50
records = [
    ("COc1cnc(Nc2ccc(CS(C)(=O)=O)cc2)nc1Nc1cc(C2CC2)[nH]n1", 6.43),
    ("CCc1ccccc1-c1nn(CCCCCCCCCCC(=O)Nc2cnnc(-c3ccccc3)c2)c(=N)cc1C", 4.89),
    ("COc1cc(-c2ccc3ncc(-c4ccc(C(=O)NCCN(C)C)cc4)n3n2)ccc1O", 6.61),
]

* * *

Biological target: Serine/threonine-protein kinase 17B (Homo sapiens)
Sequence (O94768 whole entry): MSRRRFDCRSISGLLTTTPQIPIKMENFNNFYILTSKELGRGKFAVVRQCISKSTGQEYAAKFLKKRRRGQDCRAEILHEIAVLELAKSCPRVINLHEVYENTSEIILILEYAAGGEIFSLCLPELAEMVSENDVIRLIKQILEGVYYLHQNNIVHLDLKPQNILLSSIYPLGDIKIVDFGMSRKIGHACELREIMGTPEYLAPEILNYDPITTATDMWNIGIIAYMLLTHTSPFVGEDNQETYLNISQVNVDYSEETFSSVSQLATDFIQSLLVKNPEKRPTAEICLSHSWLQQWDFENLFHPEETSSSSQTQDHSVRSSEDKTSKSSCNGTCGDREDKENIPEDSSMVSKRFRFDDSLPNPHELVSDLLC

# structureSmilesString, Kd, nM
measured = [
    ("Nc1c(-c2n[nH]c(=S)o2)sc2ccc(Cl)cc12", 250),
    ("Nc1c(-c2n[nH]c(=S)o2)sc2ncc(-c3ccsc3)cc12", 8),
]

* * *

Biological target: Serine/threonine-protein kinase pim-1 (Homo sapiens)

# compound, Ki
records = [
    ("CC(Sc1nc2c(cnn2-c2cccc(Cl)c2)c(=O)[nH]1)C(N)=O (stereo unspecified)", "2940 nM"),
]
